Record form. Attribute: Relative Selectivity versus PI3Kalpha. Fill in for each entry.
# target or test system: PI3K-alpha (Homo sapiens (Human))
# Sequence (P42336 whole entry, looked up, canonical isoform): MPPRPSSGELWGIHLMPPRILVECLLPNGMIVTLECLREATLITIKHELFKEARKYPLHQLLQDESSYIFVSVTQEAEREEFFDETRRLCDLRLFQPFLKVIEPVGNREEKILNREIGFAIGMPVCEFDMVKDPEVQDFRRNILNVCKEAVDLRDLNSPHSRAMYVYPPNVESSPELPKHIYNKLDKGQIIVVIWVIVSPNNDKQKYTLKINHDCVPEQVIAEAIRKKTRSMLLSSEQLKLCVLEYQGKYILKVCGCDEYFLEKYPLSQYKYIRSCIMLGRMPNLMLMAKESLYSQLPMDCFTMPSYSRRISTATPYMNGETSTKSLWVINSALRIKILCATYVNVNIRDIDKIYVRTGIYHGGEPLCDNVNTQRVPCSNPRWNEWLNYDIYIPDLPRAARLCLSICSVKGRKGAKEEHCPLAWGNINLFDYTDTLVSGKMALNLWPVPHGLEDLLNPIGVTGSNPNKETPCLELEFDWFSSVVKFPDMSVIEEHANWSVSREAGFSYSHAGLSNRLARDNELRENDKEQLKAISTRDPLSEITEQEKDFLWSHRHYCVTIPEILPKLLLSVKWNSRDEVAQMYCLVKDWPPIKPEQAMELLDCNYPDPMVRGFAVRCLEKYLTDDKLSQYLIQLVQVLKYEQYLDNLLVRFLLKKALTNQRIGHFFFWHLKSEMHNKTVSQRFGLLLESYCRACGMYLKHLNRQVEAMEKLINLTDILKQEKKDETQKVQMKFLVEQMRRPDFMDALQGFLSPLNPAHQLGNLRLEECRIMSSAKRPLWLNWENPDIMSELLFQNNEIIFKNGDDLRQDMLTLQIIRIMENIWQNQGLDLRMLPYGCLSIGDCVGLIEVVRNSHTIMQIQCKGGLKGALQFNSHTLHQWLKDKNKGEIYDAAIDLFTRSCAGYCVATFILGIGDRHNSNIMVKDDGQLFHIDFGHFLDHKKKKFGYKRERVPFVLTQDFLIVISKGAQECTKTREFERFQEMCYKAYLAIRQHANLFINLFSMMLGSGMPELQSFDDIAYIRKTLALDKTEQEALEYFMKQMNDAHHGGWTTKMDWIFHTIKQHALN
# Sequence (P27986 whole entry partner, looked up, canonical isoform): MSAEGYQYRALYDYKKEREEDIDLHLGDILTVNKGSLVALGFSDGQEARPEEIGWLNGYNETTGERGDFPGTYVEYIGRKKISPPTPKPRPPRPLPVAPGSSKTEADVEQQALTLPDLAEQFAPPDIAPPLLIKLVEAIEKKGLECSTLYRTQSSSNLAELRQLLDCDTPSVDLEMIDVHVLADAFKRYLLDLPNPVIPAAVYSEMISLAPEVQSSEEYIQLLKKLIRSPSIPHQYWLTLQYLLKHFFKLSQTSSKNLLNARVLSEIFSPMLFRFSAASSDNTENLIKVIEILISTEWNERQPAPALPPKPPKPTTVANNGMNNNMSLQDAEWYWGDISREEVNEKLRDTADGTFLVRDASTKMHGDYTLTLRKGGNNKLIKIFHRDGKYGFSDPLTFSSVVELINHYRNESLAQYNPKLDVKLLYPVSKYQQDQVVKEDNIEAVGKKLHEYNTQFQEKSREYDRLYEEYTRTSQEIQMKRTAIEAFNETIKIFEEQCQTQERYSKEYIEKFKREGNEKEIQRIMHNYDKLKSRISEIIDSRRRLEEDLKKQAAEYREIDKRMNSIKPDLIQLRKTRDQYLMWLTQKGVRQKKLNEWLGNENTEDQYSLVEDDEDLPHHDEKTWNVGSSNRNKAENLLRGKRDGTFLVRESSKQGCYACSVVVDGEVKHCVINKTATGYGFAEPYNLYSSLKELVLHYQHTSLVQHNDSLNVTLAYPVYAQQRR
# protocol text: HTRF PI3K biochemical assay, alpha isoform
# condition label: ratio PI3K-alpha IC50 value/PI3K-delta IC50 value

Q: Reported Relative Selectivity versus PI3Kalpha, compound CCn1c(-c2cnc(C)nc2)nc2c(OC3CN(Cc4ccccc4)CC3(C)C)ncnc21 (stereo not shown) [Compound 6-6] : ____
Ans: >10

Q: Any idea what Relative Selectivity versus PI3Kalpha was measured for CCn1c(-c2ccc(C(F)(F)F)cc2)nc2c(O[C@H]3CCN(C(=O)C4CC4)C3)ncnc21 [Compound 2-146] ?
Ans: >10

Q: Which value of Relative Selectivity versus PI3Kalpha has been reported for CCn1c(-c2cnc(C)nc2)nc2c(O[C@H]3CCN(C(=O)N4CCC4C)C3)ncnc21 (single isomer, unassigned) [Compound 5-16] in the records?
Ans: >10

Q: I am curious: what Relative Selectivity versus PI3Kalpha value has been reported for CCCn1c(-c2cnc(C)nc2)nc2c(O[C@H]3CCN(C(=O)CC)C3)ncnc21 [Compound 3-19] ?
Ans: >10

Q: Tell me the measured Relative Selectivity versus PI3Kalpha of Cn1c(-c2ccc3[nH]ncc3c2)nc2c(O[C@H]3CCN(C(=O)OC(C)(C)C)C3)ncnc21 [Compound 1-29] , please.
Ans: >10

Q: // lookup Relative Selectivity versus PI3Kalpha for CCC(=O)N1CC[C@H](Oc2ncnc3c2nc(-c2ccc(OC)nc2)n3C)C1 [Compound 3-33]
Ans: >10

Q: Form field: reported Relative Selectivity versus PI3Kalpha of Cn1c(-c2ccc(O)cc2)nc2c(O[C@H]3CCN(C(=O)OC(C)(C)C)C3)ncnc21 [Compound 1-18]
Ans: >10

Where these numbers come from: patent US9730940B2
